Origin of values: the Human Domainome abundance scans (Beltran et al. 2025)

B1: Formin-binding protein 4, residues 200 to 261; numbered along this chain, Q8N3X1 (parent)
chain: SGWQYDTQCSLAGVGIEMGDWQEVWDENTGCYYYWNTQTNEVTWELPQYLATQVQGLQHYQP

variants of: B1; assay: abundance fitness (aPCA) (normalised: wild type 0, dead -1); higher = more abundant; growth selection in yeast, the domain comes from the species named; conditions: Homo sapiens
measured-parameter: abundance fitness
// print number alone

Previously resolved entries follow.
Q8D ... -0.515
Y33K ... 0.016
E17M ... -0.414

Query :: Reported abundance fitness, variant "E27D" : ____
Result :: 0.101

Query :: Again, but for "Y33Q"
Result :: -0.389

Query :: Again, but for "L50T"
Result :: -0.704

Query :: Again, but for "Q55N"
Result :: -0.186
